Experiment: qHTS RealTime-Glo MT Cell Viability Assay in HepG2 cells - 8 hour (AID 1224873); also: nearly all actives have a fitted effect of over 55% in size
Details: RealTime-Glo luminescence; series mostly up to 76.8 µM
Results filed as inconclusive are left out. Calls of active or inactive are those of the source. Calls follow the shape of the dose curve; as a rule, active = well fitted cell-killing curve with a large enough effect in the repeat runs; inconclusive = weak or mixed curves; inactive = flat fitted curve, though single readings scatter.
Please answer using one outcome listed in active, inactive

Observe how each entry below is paired with its result.
MOLECULE: O=C(c1ccc(F)cc1)C1CCN(CCn2c(=O)[nH]c3ccccc3c2=O)CC1
CATEGORY: inactive

MOLECULE: CCCCCCOC(=O)c1ccc(O)cc1
CATEGORY: inactive

MOLECULE: O=c1cc(-c2ccc(O)cc2)oc2cc(O)cc(O)c12
CATEGORY: inactive

MOLECULE: O=C(O)c1ccc(Cl)c(Cl)c1
CATEGORY: inactive

Query string: Record lookup: outcome of this test for `CCOC(=O)O[C@]1(C(=O)OCCl)CC[C@H]2[C@@H]3CCC4=CC(=O)C=C[C@]4(C)[C@H]3[C@@H](O)C[C@@]21C` ?
Result string: inactive

Query string: Again, but for CC(C)(C)C(=O)OCOC(=O)C1N2C(=O)CC2S(=O)(=O)C1(C)C (stereo not drawn)
Result string: inactive

Query string: Please give the result for `Nc1c(Cl)cc(Cl)cc1Cl` too.
Result string: inactive

Query string: Now give it for `CCc1cc(SCc2sc(-c3ccc(C(F)(F)F)cc3)nc2CN2CCN(c3ccc(OC)cc3)CC2)ccc1OCC(=O)O` too.
Result string: inactive

Query string: And `CC[C@H]1O[C@]2(CC[C@@H]1C)C[C@@H]1C[C@@H](C/C=C(\C)C[C@@H](C)/C=C/C=C3\CO[C@@H]4[C@H](O)C(C)=C[C@@H](C(=O)O1)[C@]34O)O2` ?
Result string: active

Query string: Also check `Oc1cc2ccccc2c2ccccc12`
Result string: active

Query string: Next: `CNc1ccc(O)cc1`
Result string: active

Query string: Please do the same for `Cc1cccc(S(=O)(=O)O)c1C` as well.
Result string: inactive

Query string: Thanks! And Clc1ccc(C(Cn2ccnc2)OCc2ccc(Sc3ccccc3)cc2)c(Cl)c1 (stereo not drawn) ?
Result string: inactive

Query string: Cool, now `Cc1cc(N)c(S(=O)(=O)O)cc1Cl`
Result string: inactive

Query string: Another molecule to check: COC(=O)C1=C(C)NC(C)=C(C(=O)OCCc2ccc(N3CCN(C(c4ccccc4)c4ccccc4)CC3)cc2)C1c1cccc([N+](=O)[O-])c1 (stereo not drawn)
Result string: inactive

Query string: Note, next up: `CC(=O)SC[C@@H](Cc1ccccc1)C(=O)NCC(=O)OCc1ccccc1`
Result string: inactive

Query string: Try this molecule next: `CCCCCCCCCCCCCCCS(=O)(=O)Oc1ccccc1`
Result string: inactive

Query string: Lookup `Clc1ccc2n[nH]nc2c1`
Result string: inactive

Query string: And for `N#CSc1ccc(N)c([N+](=O)[O-])c1` ?
Result string: inactive

Query string: Follow-up entry: CCCC1O[C@@H]2C[C@H]3[C@@H]4CCC5=CC(=O)C=C[C@]5(C)[C@H]4[C@@H](O)C[C@]3(C)[C@]2(C(=O)CO)O1 (stereo partly drawn)
Result string: inactive

Query string: Queued: `N=C1N=C(N)c2ccccc21`
Result string: inactive

Query string: Let us now turn to `C/C=C(\C)C(=O)OCc1ccccc1`
Result string: inactive

Query string: Another molecule to check: `O=C1C=CC(=O)N1`
Result string: active
